Hi! I'm sharing some pKi results obtained with purified human autoBACE-2 (Homo sapiens (Human), UniProt Q9Y5Z0).
Sequence (Q9Y5Z0 63-466): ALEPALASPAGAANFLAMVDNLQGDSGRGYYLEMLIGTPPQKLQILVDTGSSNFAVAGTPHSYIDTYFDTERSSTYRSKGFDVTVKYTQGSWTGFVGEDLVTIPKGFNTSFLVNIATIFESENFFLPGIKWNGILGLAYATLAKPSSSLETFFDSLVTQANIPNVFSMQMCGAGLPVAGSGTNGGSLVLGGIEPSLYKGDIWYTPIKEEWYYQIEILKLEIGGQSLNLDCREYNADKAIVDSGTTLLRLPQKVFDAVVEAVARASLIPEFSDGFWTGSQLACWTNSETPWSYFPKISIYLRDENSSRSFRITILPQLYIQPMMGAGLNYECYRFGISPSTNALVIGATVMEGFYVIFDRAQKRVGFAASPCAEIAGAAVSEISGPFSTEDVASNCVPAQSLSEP
Numbers only, as −log10 of the molar value.

compound	result
CC1(C)C(=N)N[C@](C)(c2cc(Nc3noc4cc(F)cnc34)ccc2F)CS1(=O)=O [WO′426 Ex. 30b, reference compound]	8.21
C[C@@]1(c2nc(Nc3nccc4cc(C#N)cnc34)ccc2F)CS(=O)(=O)[C@@](CF)(C2CC2)C(N)=N1 [Example 2]	8.16
C[C@@]1(c2cc(Nc3ccnc4cc(Cl)cnc34)ncc2F)CS(=O)(=O)[C@@](C)(C2CC2)C(N)=N1 [Example 33]	9.09
C[C@@]1(c2cc(Nc3nccc4cc(Br)cnc34)ncc2F)CS(=O)(=O)[C@@](C)(C2CC2)C(N)=N1 [Example 3]	9.46
COc1cnc2c(Nc3cnc(F)c([C@]4(C)CS(=O)(=O)[C@@](C)(C5CC5)C(N)=N4)c3)nccc2c1 [Example 32]	8.59

Parameters: items (list). Returns: pKi for each item.
1. COc1ccccc1Nc1ccc(F)c([C@]2(C)CS(=O)(=O)C(C)(C)C(=N)N2)n1 [WO′426 Ex. 30a, reference compound]
2. COc1cnc2c(Nc3cc([C@]4(C)CS(=O)(=O)[C@@](C)(C5CC5)C(N)=N4)c(F)cn3)ncnc2c1 [Example 19]
3. C[C@@]1(c2nc(Nc3nccc4cc(C#N)cnc34)ncc2F)CS(=O)(=O)[C@@](C)(C2CC2)C(N)=N1 [Example 5]

6.29
7.68
8.11
